The measurements presented in this section are drawn from the supplement of paper PMC10126150.

Test system: ATP;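 note: ATP exposure 15 min at 22 °C before imaging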
Test Method Notes: switch fluorescence ratio, 500 uM ATP over buffer (Cy3 cluster intensity, sum of 5 cycles each) (fold (ratio)); higher = stronger signal-on switching upon ATP binding; sequences stand for … in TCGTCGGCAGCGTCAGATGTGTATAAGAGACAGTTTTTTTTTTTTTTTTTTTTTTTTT…TC
Test Settings: aptamer strand: ATP DNA aptamer (quencher-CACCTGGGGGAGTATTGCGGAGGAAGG + anchor), 100 nM annealed; ATP concentration: 500 uM
switch fluorescence ratio: recorded values

{"Input Sequence": "TCTGTCCAGC", "switch fluorescence ratio": 0.977}
{"Input Sequence": "TAAAGCAGCT", "switch fluorescence ratio": 0.965}
{"Input Sequence": "TCCATGGGAC", "switch fluorescence ratio": 1.03}
{"Input Sequence": "CCGTTAGCTT", "switch fluorescence ratio": 2.2}
{"Input Sequence": "GGGTGACGAG", "switch fluorescence ratio": 1}
{"Input Sequence": "CATTGTGGGC", "switch fluorescence ratio": 0.962}
{"Input Sequence": "CAGTTTGTTG", "switch fluorescence ratio": 0.973}
{"Input Sequence": "TTTCTCCCTT", "switch fluorescence ratio": 1.19}
{"Input Sequence": "CGGGAAGTGG", "switch fluorescence ratio": 0.996}
{"Input Sequence": "GCGTTTTGAG", "switch fluorescence ratio": 0.981}
{"Input Sequence": "CACTAGGCGG", "switch fluorescence ratio": 1.02}
{"Input Sequence": "TGTATAAATT", "switch fluorescence ratio": 0.968}
{"Input Sequence": "AAGGTGGGAC", "switch fluorescence ratio": 1.02}
{"Input Sequence": "TCGGCACCGG", "switch fluorescence ratio": 1.02}
{"Input Sequence": "TGAAAGGGTA", "switch fluorescence ratio": 0.999}
{"Input Sequence": "TGGTTTTCGG", "switch fluorescence ratio": 0.993}
{"Input Sequence": "AGCAGCGGGC", "switch fluorescence ratio": 0.997}
{"Input Sequence": "TTAAGTGATT", "switch fluorescence ratio": 0.999}
{"Input Sequence": "TGGTTTTAAT", "switch fluorescence ratio": 0.973}
{"Input Sequence": "TTTTAAAAAC", "switch fluorescence ratio": 1.05}
{"Input Sequence": "AGCGGAAGGC", "switch fluorescence ratio": 1.04}
{"Input Sequence": "ATAACGATCT", "switch fluorescence ratio": 1.04}
{"Input Sequence": "ATGCACTGGT", "switch fluorescence ratio": 1.01}
{"Input Sequence": "TAGCTAATCC", "switch fluorescence ratio": 1.08}

* * *

System: ATP;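 note: ATP exposure 15 min at 22 °C before imaging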
Test Method Notes: switch fluorescence ratio, 500 uM ATP over buffer (Cy3 cluster intensity, sum of 5 cycles each) (fold (ratio)); higher = stronger signal-on switching upon ATP binding; sequences stand for … in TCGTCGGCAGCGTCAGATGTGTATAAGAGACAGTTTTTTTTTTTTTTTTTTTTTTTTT…TC
Test Settings: aptamer strand: ATP DNA aptamer (quencher-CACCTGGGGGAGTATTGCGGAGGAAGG + anchor), 100 nM annealed; ATP concentration: 500 uM
switch fluorescence ratio: recorded values
Property Measured: switch fluorescence ratio

{"Input Sequence": "CTTGTAGCAG", "Assay Target": "ATP", "Observed Result": 1.09}
{"Input Sequence": "AGGGGGGCAG", "Assay Target": "ATP", "Observed Result": 0.987}
{"Input Sequence": "AGTTAGGGGT", "Assay Target": "ATP", "Observed Result": 0.987}
{"Input Sequence": "ACTAGCAGCT", "Assay Target": "ATP", "Observed Result": 1.01}
{"Input Sequence": "GGGGGTTACG", "Assay Target": "ATP", "Observed Result": 0.998}
{"Input Sequence": "TGTGCCAGGG", "Assay Target": "ATP", "Observed Result": 1.06}
{"Input Sequence": "GAAGATGGTG", "Assay Target": "ATP", "Observed Result": 0.963}
{"Input Sequence": "ATTATGTCCA", "Assay Target": "ATP", "Observed Result": 0.97}
{"Input Sequence": "TATGATGGGT", "Assay Target": "ATP", "Observed Result": 1.01}
{"Input Sequence": "TGAGGTATG", "Assay Target": "ATP", "Observed Result": 0.971}
{"Input Sequence": "TTTCGTAAGA", "Assay Target": "ATP", "Observed Result": 0.995}
{"Input Sequence": "AACTTTAGTT", "Assay Target": "ATP", "Observed Result": 1.02}
{"Input Sequence": "CGAATGGGAC", "Assay Target": "ATP", "Observed Result": 1.04}
{"Input Sequence": "TGCTGGGCTG", "Assay Target": "ATP", "Observed Result": 1.01}
{"Input Sequence": "GCTTGAATTT", "Assay Target": "ATP", "Observed Result": 0.984}
{"Input Sequence": "CTCTGAGGGA", "Assay Target": "ATP", "Observed Result": 1.01}
{"Input Sequence": "GCATAGGGAT", "Assay Target": "ATP", "Observed Result": 0.988}
{"Input Sequence": "GGAGTGGGAC", "Assay Target": "ATP", "Observed Result": 1.12}
{"Input Sequence": "TGACGAAACT", "Assay Target": "ATP", "Observed Result": 1.35}
{"Input Sequence": "CGCGTCAGCC", "Assay Target": "ATP", "Observed Result": 0.979}
{"Input Sequence": "TAAGGGAAAC", "Assay Target": "ATP", "Observed Result": 0.963}
{"Input Sequence": "AATATGAG", "Assay Target": "ATP", "Observed Result": 1.02}
{"Input Sequence": "ATTTATAATT", "Assay Target": "ATP", "Observed Result": 0.992}
{"Input Sequence": "TGCATGTACA", "Assay Target": "ATP", "Observed Result": 1.04}
{"Input Sequence": "GGTACCACTT", "Assay Target": "ATP", "Observed Result": 0.992}
{"Input Sequence": "GGGCCCGCGT", "Assay Target": "ATP", "Observed Result": 0.98}
{"Input Sequence": "CAGAAGTCTC", "Assay Target": "ATP", "Observed Result": 1}
{"Input Sequence": "TTAGTAGGGT", "Assay Target": "ATP", "Observed Result": 0.983}
{"Input Sequence": "ATATTGACAC", "Assay Target": "ATP", "Observed Result": 1.08}
{"Input Sequence": "TGGCGTTGGT", "Assay Target": "ATP", "Observed Result": 0.994}
{"Input Sequence": "TCAGACTACT", "Assay Target": "ATP", "Observed Result": 1.02}
